meta.source: patent US9339463B2

Assay: Chemical stability on storage: assay and impurities
Assay type: physicochemical
Settings: 40° C./75% RH, 3 mo
attributeMeasured: Other (impurities; Table 5: >0.05%)

compound | attributeMeasured | testResult
COc1ccc2c3c1O[C@H]1C(=O)CC[C@@]4(O)[C@@H](C2)N(C)CC[C@]314 [Lot 1, oxycodone] | Other (impurities; Table 5: >0.05%) | <LOQ
COc1ccc2c3c1O[C@H]1C(=O)CC[C@@]4(O)[C@@H](C2)N(C)CC[C@]314 [Lot 2, oxycodone] | Other (impurities; Table 5: >0.05%) | <LOQ
COc1ccc2c3c1O[C@H]1C(=O)CC[C@@]4(O)[C@@H](C2)N(C)CC[C@]314 [Non-micronized, oxycodone] | Other (impurities; Table 5: >0.05%) | <LOQ
COc1ccc2c3c1O[C@H]1C(=O)CC[C@@]4(O)[C@@H](C2)N(C)CC[C@]314 [Lot 3, oxycodone] | Other (impurities; Table 5: >0.05%) | <LOQ
